Study target: T1, factor H binding protein variant 1.1 (Neisseria meningitidis serogroup B …, UniProt Q9JXV4)
T1 construct: also called fHbp v1.1; v1.1 Control (0001)
Experimental details: BLI
Protocol conditions: both partners purified
Measured metric: pKd
Give bare numbers, as −log10 of the molar value.

Binder	pKd
mAb 1E6 (human) (antibody, V domains shown, source: Expi293, purified (MabSelect SuRe, SEC); copies: 2 + 2) VH: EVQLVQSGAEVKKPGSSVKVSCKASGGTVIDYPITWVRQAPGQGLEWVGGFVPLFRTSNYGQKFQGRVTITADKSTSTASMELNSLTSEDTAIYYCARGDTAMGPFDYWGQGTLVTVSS VL: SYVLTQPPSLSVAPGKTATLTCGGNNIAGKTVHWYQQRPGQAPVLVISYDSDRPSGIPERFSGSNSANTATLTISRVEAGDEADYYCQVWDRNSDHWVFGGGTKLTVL	8.47

QUERY: Provide measured pKd value, entry: mAb 4B3 (human) (antibody, V domains shown, also called 4B3-2; source: Expi293, purified (MabSelect SuRe, SEC); copies: 2 + 2) VH: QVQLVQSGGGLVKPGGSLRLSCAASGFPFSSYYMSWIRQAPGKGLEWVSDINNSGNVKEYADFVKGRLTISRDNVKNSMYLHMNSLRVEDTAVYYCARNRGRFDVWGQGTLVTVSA VL: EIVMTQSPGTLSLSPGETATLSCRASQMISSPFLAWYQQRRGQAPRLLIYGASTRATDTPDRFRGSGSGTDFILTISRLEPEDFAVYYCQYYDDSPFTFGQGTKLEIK
RESULT: 8.87

Source listed as paper PMC12319226.
